// reported melting point per item

Use the examples below as a reference point.
In [3]: df
Out[3]:
                                   molecule       measured
0  O=C(COc1cc(N2C(=O)C3=C(CCCC3)C2=O)c(F)cc1Cl)c1ccc(F)cc1 [Compound C8]  126 to 128 °C
1  O=C(COc1cc(N2C(=O)C3=C(CCCC3)C2=O)c(F)cc1Cl)c1ccc([N+](=O)[O-])cc1 [Compound C9]  148 to 150 °C
2  Cc1ccc(C(=O)COc2ccc(N3C(=O)C4=C(CCCC4)C3=O)c(F)c2)cc1 [Compound C15]  144 to 146 °C
3  Cc1ccc(Br)cc1-c1noc(COc2cc(N3C(=O)C4=C(CCCC4)C3=O)c(F)cc2Cl)n1 [Compound A1]  101 to 105 °C
4  O=C(COC(=O)c1cc(N2C(=O)C3=C(CCCC3)C2=O)c(F)cc1Cl)c1ccccc1 [Compound E2]  133 to 136 °C

# melting point of COc1ccc(C(=O)COc2cc(N3C(=O)C4=C(CCCC4)C3=O)c(F)cc2Cl)cc1 [Compound C13] = 151 to 153 °C

# melting point of Cc1ccccc1-c1noc(COc2cc(N3C(=O)C4=C(CCCC4)C3=O)c(F)cc2Cl)n1 [Compound A2] = 161 to 167 °C

# melting point of CC(=O)Nc1cc(N2C(=O)C3=C(CCCC3)C2=O)c(F)cc1Cl [Compound D1] = 155 to 157 °C

# melting point of Cc1ccc(-c2nnc(COc3cc(N4C(=O)C5=C(CCCC5)C4=O)c(F)cc3Cl)o2)cc1 [Compound B13] = 104 to 106 °C

# melting point of Cc1ccccc1-c1nnc(COc2cc(N3C(=O)C4=C(CCCC4)C3=O)c(F)cc2Cl)o1 [Compound B9] = 144 to 147 °C

# melting point of C/C=C/C(=O)Nc1cc(N2C(=O)C3=C(CCCC3)C2=O)c(F)cc1Cl [Compound D5] = 133 to 138 °C

# melting point of O=C(Nc1cc(N2C(=O)C3=C(CCCC3)C2=O)c(F)cc1Cl)C1CCC1 [Compound D9] = 145 to 147 °C

# melting point of N#Cc1ccc(C(=O)COc2cc(N3C(=O)C4=C(CCCC4)C3=O)c(F)cc2Cl)cc1 [Compound C3] = 171 to 178 °C

Source listed as patent US20240300932A1.
